For each record, write down the corresponding luminescence.
molecular target: Chaperone protein DnaK (Escherichia coli (strain K12)); assay: blockers of bacterial DnaK function – luminescence, E. coli K12, primary screen (AID 547); conditions: DnaK chaperone assay, luminescence read-out; hits give low values;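 also: tested at 10 µM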
The whole screen tested about 1,300 compounds, of which about 10 (0.8%) were called active. The entries come from a sample that favours actives as a whole.

Q. Quick check: luminescence of COc1cc([C@@H]2c3cc4c(cc3[C@H](O)C3COC(=O)[C@@H]32)OCO4)cc(OC)c1OC (stereo partly specified) ?
A. 2.6e+06 cps (inactive)

Q. Quick check: luminescence of NC(=NCc1ccccc1)NC(=O)c1nc(Cl)c(N)nc1N ?
A. 2.1e+06 cps (inactive)

Q. Quick check: luminescence of CC(C)NCC(O)c1ccc(NS(C)(=O)=O)cc1 (stereo unspecified) ?
A. 2.3e+06 cps (inactive)

Q. Quick check: luminescence of N[C@@H](CC(=O)O)C(=O)O ?
A. 2.4e+06 cps (inactive)

Q. Quick check: luminescence of O=C(O)CNC(=O)C(CS)Cc1ccccc1 (stereo unspecified) ?
A. 2.3e+06 cps (inactive)

Q. Quick check: luminescence of Clc1ccc2c(c1)C(N1CCNCC1)=Nc1ccccc1O2 ?
A. 3.1e+06 cps (inactive)

Q. Quick check: luminescence of CCCCN1CCC(COC(=O)c2cc(Cl)c(N)c3c2OCCO3)CC1 ?
A. 2.2e+06 cps (inactive)

Q. Quick check: luminescence of Cn1cnc2c(NC3CCCC3)ncnc21 ?
A. 2.5e+06 cps (inactive)

Q. Quick check: luminescence of O=C(O)/C=C/c1cnc[nH]1 ?
A. 2.2e+06 cps (inactive)

Q. Quick check: luminescence of CNC(=O)[C@H]1O[C@@H](n2cnc3c(N)ncnc32)C(O)[C@H]1O (stereo partly specified) ?
A. 2.5e+06 cps (inactive)

Q. Quick check: luminescence of Nc1c(S(=O)(=O)O)cc(Nc2ccc(Nc3nc(Cl)nc(Nc4ccc(S(=O)(=O)O)cc4)n3)c(S(=O)(=O)O)c2)c2c1C(=O)c1ccccc1C2=O ?
A. 1.6e+06 cps (active)
